Each entry below carries its recorded pIC50.
- targetEntity: NLRP3 inflammasome (Homo sapiens, UniProt Q96P20)
- Construct: endogenous in cells
- Sequence (Q96P20 whole entry): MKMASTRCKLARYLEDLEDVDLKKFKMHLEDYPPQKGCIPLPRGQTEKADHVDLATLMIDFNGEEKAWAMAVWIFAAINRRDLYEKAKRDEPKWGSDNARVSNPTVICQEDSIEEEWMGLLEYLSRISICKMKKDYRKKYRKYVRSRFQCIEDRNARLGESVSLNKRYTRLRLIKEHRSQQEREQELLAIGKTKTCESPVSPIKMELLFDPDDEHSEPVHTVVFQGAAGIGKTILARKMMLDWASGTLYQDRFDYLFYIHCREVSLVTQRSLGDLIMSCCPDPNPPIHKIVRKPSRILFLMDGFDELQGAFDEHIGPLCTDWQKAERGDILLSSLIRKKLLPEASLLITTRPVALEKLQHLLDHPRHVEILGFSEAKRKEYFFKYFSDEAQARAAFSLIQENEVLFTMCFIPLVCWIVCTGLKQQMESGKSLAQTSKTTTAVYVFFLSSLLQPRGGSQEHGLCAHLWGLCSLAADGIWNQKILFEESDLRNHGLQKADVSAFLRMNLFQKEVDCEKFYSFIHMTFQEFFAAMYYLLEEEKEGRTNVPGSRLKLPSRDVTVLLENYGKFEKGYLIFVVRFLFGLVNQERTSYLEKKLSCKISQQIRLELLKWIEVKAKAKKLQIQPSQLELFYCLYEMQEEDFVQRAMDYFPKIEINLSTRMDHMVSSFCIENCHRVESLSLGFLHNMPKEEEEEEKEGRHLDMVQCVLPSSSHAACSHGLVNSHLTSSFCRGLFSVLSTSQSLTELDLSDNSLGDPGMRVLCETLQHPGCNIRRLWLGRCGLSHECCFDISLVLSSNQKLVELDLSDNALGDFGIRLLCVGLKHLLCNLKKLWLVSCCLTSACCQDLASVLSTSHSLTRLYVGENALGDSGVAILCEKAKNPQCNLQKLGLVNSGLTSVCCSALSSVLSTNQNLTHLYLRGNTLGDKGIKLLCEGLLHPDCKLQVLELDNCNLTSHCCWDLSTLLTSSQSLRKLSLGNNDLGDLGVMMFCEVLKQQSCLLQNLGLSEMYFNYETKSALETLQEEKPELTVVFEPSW
- testName: IL-1β secretion assay (NLRP3 IC50) in LPS-primed, nigericin-activated THP-1 cells, HTRF
- measurementConditions: monocytic THP-1 cells; LPS 10 ng/mL 3 h priming, then compound + nigericin 10 μM 2 h; relative IC50, 10 concentrations, geometric mean
# pIC50 = -log10(concentration in molar units)

CN1CC[C@H]2OCCN(c3cc(C(F)F)c(-c4cccc(F)c4O)nn3)[C@H]2C1 | 6.78
CCc1cccc(O)c1-c1ccc(N2CC[C@H]3CCN(C)C[C@H]32)nn1 (single isomer, unassigned) | 9.32
Cc1cc(C)c(-c2ccc(N3CCO[C@@H]4COCC[C@@H]43)nn2)c(O)c1 (racemic) | 6.30
Cc1ccc(-c2nnc(N3CCO[C@H](CO)C3)cc2C(C)C)c(O)c1 | 6.39
CC(=O)N1CCC[C@@H]2[C@H]1CCCN2c1ccc(-c2c(C)cc(C(F)(F)F)cc2O)nn1 | 6.60

Turning now to a further molecule:
Query: Any idea what pIC50 was measured for OC[C@@H]1CN(c2nnc(-c3ccc(Cl)cc3O)c3c2CCC3)CCO1 ?
Reply: 6.36

* * *

- targetEntity: NLRP3 inflammasome (Homo sapiens)
- Construct: endogenous in cells
- testName: IL-1β secretion assay (NLRP3 IC50) in LPS-primed, nigericin-activated THP-1 cells, HTRF
- measurementConditions: monocytic THP-1 cells; LPS 10 ng/mL 3 h priming, then compound + nigericin 10 μM 2 h; relative IC50, 10 concentrations, geometric mean
Structures can show the parent of a compound that is named as a salt.
Each entry below carries its recorded IC50.

The following molecules have reported results that may help.
Cc1cc(C)c(-c2ccc(N3CCOC([C@@H](C)O)C3)nn2)c(O)c1 (single isomer, unassigned) [Example 180] | 473 nM
CC(C)c1cc(N2CCO[C@H](CO)C2)nnc1-c1ccc(Cl)cc1O [Example 75] | 183 nM
Cc1ccc(-c2nnc(N3CCO[C@@H]4CCN(C)C[C@@H]43)cc2C(F)F)c(O)c1 [Example 295] | 2 nM
CCN1CC[C@H]2CCN(c3cc(C(F)F)c(-c4ccc(C(F)(F)F)cc4O)nn3)[C@H]2C1 (single isomer, unassigned) [Example 486] | < 0.3 nM
NC1(C2CCCN(c3ccc(-c4c(O)cc(Cl)cc4Cl)nn3)C2)CC1 (centres unmarked) [Example 17] | 473 nM
Cc1cc(C(F)(F)F)cc(O)c1-c1ccc(N2CCOC(CO)C2=O)nn1 (single isomer, unassigned) [Example 419] | 127 nM
CC(=O)N1CC[C@H]2OCCN(c3ccc(-c4c(C)cc(C(F)(F)F)cc4O)nn3)[C@H]2C1 (single isomer, unassigned) [Example 262] | 17 nM
CCN1CC[C@H]2OCCN(c3cc(C)c(-c4ccc(Cl)cc4O)nn3)[C@H]2C1 [Example 437] | 1 nM
Cc1cc(N2CCO[C@@H]3CCN(C)C[C@@H]32)nnc1-c1ccc(Cl)cc1O [Example 379] | 1 nM
Cc1cc(C)c(-c2ccc(N3CCC(O)CC3)nn2)c(O)c1 [Example 1] | 407 nM

Query: Any idea what IC50 was measured for Cc1cc(C(F)(F)F)cc(O)c1-c1ccc(N2C[C@H](CO)O[C@@H](CO)C2)nn1 [Example 200] ?
Reply: 23 nM

Query: Any idea what IC50 was measured for Cc1cc(N2CC[C@H]3CCN(C)C[C@H]32)nnc1-c1ccc(Cl)cc1O (single isomer, unassigned) [Example 468] ?
Reply: 544 nM

Query: Any idea what IC50 was measured for CC(=O)N1CC[C@H]2OCCN(c3ccc(-c4c(C)cc(Cl)cc4O)nn3)[C@H]2C1 (single isomer, unassigned) [Example 397] ?
Reply: 23 nM

Query: Any idea what IC50 was measured for Cc1cc(C(F)(F)F)cc(O)c1-c1ccc(N2CCO[C@@H]3CNC[C@H]32)nn1 (racemic) [Example 318, hydrochloride] ?
Reply: 883 nM
